EXPERIMENTAL_SYSTEM: UniProtKB P51677
Sequence (P51677 whole entry): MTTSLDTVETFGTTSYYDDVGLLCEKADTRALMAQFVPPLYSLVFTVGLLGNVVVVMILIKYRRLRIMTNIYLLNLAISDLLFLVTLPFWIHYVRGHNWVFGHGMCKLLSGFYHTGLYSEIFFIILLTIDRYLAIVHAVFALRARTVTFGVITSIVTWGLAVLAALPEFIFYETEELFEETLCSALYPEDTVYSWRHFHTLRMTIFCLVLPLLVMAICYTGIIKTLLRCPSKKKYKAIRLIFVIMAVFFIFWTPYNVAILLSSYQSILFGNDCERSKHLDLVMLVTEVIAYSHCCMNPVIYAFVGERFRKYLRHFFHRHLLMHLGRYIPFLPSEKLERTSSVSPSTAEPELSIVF
PROTOCOL: Inhibitory activity against recombinant human Chemokine receptor type 3 (CCR3) expressed in chinese hamster ovary cells
Type: cell-based, CHO
Entries and their log10(IC50)
TEST_READOUT: log10(IC50) (log10 of the value in nM)

{"COMPOUND": "COc1cccc(NC(=O)Nc2ccccc2C(O)CN2CCC(Cc3ccccc3)CC2)c1 (stereo not given)", "NUMERIC_RESULT": 1.91}
{"COMPOUND": "CNC(=O)c1cccc(NC(=O)Nc2cccc(OC)c2)c1CN1CCC(Cc2ccc(F)cc2)CC1", "NUMERIC_RESULT": 0.30}
{"COMPOUND": "CC(=O)c1cccc(NC(=O)Nc2ccccc2CN2CCC(Cc3ccc(F)cc3)CC2)c1", "NUMERIC_RESULT": 2.10}
{"COMPOUND": "N#Cc1cccc(NC(=O)Nc2cccc(C(N)=O)c2CN2CCC(Cc3ccc(F)cc3)CC2)c1", "NUMERIC_RESULT": 0.48}
{"COMPOUND": "O=C(Nc1cc(F)ccc1F)Nc1ccccc1C(O)CN1CCC(Cc2ccccc2)CC1 (stereo not given)", "NUMERIC_RESULT": 2.61}
{"COMPOUND": "O=C(NCCCO)NC(Cc1ccccc1)c1ccccc1 (stereo not given)", "NUMERIC_RESULT": 4.70}
{"COMPOUND": "COc1cccc(NC(=O)Nc2ccc(CO)cc2CN2CCC(Cc3ccc(F)cc3)CC2)c1", "NUMERIC_RESULT": 1.67}
{"COMPOUND": "O=C(NCc1ccccc1)Nc1ccccc1CN1CCC(Cc2ccccc2)CC1", "NUMERIC_RESULT": 3.53}
{"COMPOUND": "O=C(NCC(CCCN1CCC(O)(c2ccc(Cl)cc2)CC1)(c1ccccc1)c1ccccc1)Nc1ccncc1", "NUMERIC_RESULT": 3.54}
{"COMPOUND": "O=C(Nc1cc(F)ccc1F)Nc1ccccc1CN1CCC(c2ccccc2)CC1", "NUMERIC_RESULT": 4.04}

* * *

EXPERIMENTAL_SYSTEM: C-C chemokine receptor type 3 (Homo sapiens) (UniProt P51677)
PROTOCOL: Evaluated for its inhibitory activity against human Chemokine receptor type 3 expressed in chinese hamster ovary cells at 5 uM
Assay type: cell-based
TEST_SETTINGS: CHO
Entries and their inhibition

{"MOLECULE": "N#Cc1cccc(NC(=O)Nc2ccc(CN3CCC(Cc4ccccc4)CC3)cc2)c1", "EXPERIMENTAL_SYSTEM": "C-C chemokine receptor type 3 (Homo sapiens) (UniProt P51677)", "inhibition [%]": 47}
{"MOLECULE": "O=C(Nc1cc(F)ccc1F)Nc1ccccc1CN1CCC(O)(c2ccc(Cl)cc2)CC1", "EXPERIMENTAL_SYSTEM": "C-C chemokine receptor type 3 (Homo sapiens) (UniProt P51677)", "inhibition [%]": 21}
{"MOLECULE": "O=C(Nc1cc(F)ccc1F)Nc1ccccc1N1CCC(Cc2ccccc2)CC1", "EXPERIMENTAL_SYSTEM": "C-C chemokine receptor type 3 (Homo sapiens) (UniProt P51677)", "inhibition [%]": 9}
{"MOLECULE": "O=C(Nc1cc(F)ccc1F)Nc1ccccc1CN1CCN(Cc2ccccc2)CC1", "EXPERIMENTAL_SYSTEM": "C-C chemokine receptor type 3 (Homo sapiens) (UniProt P51677)", "inhibition [%]": 28}
{"MOLECULE": "O=C(Nc1ccccc1)Nc1cccc(C(O)CN2CCC(Cc3ccccc3)CC2)c1 (stereo not given)", "EXPERIMENTAL_SYSTEM": "C-C chemokine receptor type 3 (Homo sapiens) (UniProt P51677)", "inhibition [%]": 71}

* * *

EXPERIMENTAL_SYSTEM: C-C chemokine receptor type 3 (Homo sapiens)
Sequence (P51677 whole entry): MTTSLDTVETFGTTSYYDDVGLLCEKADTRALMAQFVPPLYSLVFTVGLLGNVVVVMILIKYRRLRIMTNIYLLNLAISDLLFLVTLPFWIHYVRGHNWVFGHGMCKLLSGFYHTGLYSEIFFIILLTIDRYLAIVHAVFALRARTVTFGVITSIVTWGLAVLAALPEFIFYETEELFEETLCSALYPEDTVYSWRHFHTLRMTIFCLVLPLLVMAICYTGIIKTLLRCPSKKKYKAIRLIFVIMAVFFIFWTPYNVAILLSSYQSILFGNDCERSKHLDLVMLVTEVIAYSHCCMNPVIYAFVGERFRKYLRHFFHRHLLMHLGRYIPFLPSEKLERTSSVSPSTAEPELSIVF
PROTOCOL: Inhibitory activity against recombinant human Chemokine receptor type 3 (CCR3) expressed in chinese hamster ovary cells
Assay type: cell-based, CHO
pIC50: −log10 of the molar value.
Rule: pIC50 under 6 gives 0 (no), otherwise 1 (yes).

{"RECORD_SMILES": "O=C(NCCCO)NCC(CCCN1CCC(O)(c2ccc(Cl)cc2)CC1)(c1ccccc1)c1ccccc1", "LABEL_CLASS": "0 (no)"}
{"RECORD_SMILES": "O=C(NCC(CCCN1CCC(O)(c2ccc(Cl)cc2)CC1)(c1ccccc1)c1ccccc1)NC1CCN(Cc2ccccc2)CC1", "LABEL_CLASS": "0 (no)"}
{"RECORD_SMILES": "CC(=O)c1cccc(NC(=O)Nc2cc3c(cc2CN2CCC(Cc4ccc(F)cc4)CC2)OCO3)c1", "LABEL_CLASS": "1 (yes)"}
{"RECORD_SMILES": "c1ccc(CCCCN2CCC(Cc3ccccc3)CC2)cc1", "LABEL_CLASS": "0 (no)"}
{"RECORD_SMILES": "CC(=O)c1cccc(NC(=O)Nc2cc3c(cc2CN2CCC(Cc4ccccc4)CC2)OCO3)c1", "LABEL_CLASS": "1 (yes)"}
{"RECORD_SMILES": "O=C(NCc1ccc2c(c1)OCO2)Nc1ccccc1CN1CCC(Cc2ccccc2)CC1", "LABEL_CLASS": "0 (no)"}
{"RECORD_SMILES": "O=C(Nc1ccccc1)Nc1cccc(CO)c1CN1CCC(Cc2ccc(F)cc2)CC1", "LABEL_CLASS": "1 (yes)"}
{"RECORD_SMILES": "COc1cccc(NC(=O)Nc2ccccc2CCN2CCC(Cc3ccc(F)cc3)CC2)c1", "LABEL_CLASS": "1 (yes)"}
{"RECORD_SMILES": "c1ccc(CCCCN2CCN(Cc3ccccc3)CC2)cc1", "LABEL_CLASS": "0 (no)"}

* * *

EXPERIMENTAL_SYSTEM: C-C chemokine receptor type 3 (Homo sapiens, UniProt P51677)
PROTOCOL: Inhibitory activity against recombinant human Chemokine receptor type 3 (CCR3) expressed in chinese hamster ovary cells
Assay type: cell-based, CHO

{"COMPOUND": "C[N+]1(Cc2cc3c(cc2NC(=O)Nc2cccc(C#N)c2)OCO3)CCC(Cc2ccccc2)CC1 (configuration not stated)", "READOUT_UNITS": "nM", "IC50": 11}
{"COMPOUND": "N#Cc1cccc(NC(=O)NCc2ccccc2CN2CCC(Cc3ccccc3)CC2)c1", "READOUT_UNITS": "nM", "IC50": 2800}
{"COMPOUND": "CC1C2=C(CC=CC2)C(=O)N1CC1CCN(CCc2ccccc2)CC1 (configuration not stated)", "READOUT_UNITS": "nM", "IC50": 12000}
{"COMPOUND": "CC(=O)c1cccc(NC(=O)Nc2ccccc2CCN2CCC(Cc3ccc(F)cc3)CC2)c1", "READOUT_UNITS": "nM", "IC50": 2.6}
{"COMPOUND": "N#Cc1cccc(NC(=O)Nc2ccc(CO)cc2CN2CCC(Cc3ccc(F)cc3)CC2)c1", "READOUT_UNITS": "nM", "IC50": 55}
{"COMPOUND": "N#Cc1cccc(NC(=O)Nc2ccccc2C(O)CN2CCC(Cc3ccc(F)cc3)CC2)c1 (configuration not stated)", "READOUT_UNITS": "nM", "IC50": 11}
{"COMPOUND": "N#Cc1cccc(NC(=O)Nc2ccc(C(N)=O)cc2CN2CCC(Cc3ccc(F)cc3)CC2)c1", "READOUT_UNITS": "nM", "IC50": 8}
